The reported measurements were obtained from patent US5395947A.

test system: ICR mice; experiment: Acute toxicity test; format: in vivo; settings: male, 160 mg/kg i.p.
PROPERTY: Number of dead mice, 1st day

Please review the entries below; each comes with its answer.
[[record]]
compound = "CC1OC2C[NH2+][Pt-2]3([NH2+]CC2O1)[O]C(=O)C1(CCC1)C(=O)[O]3 (centres unmarked) [Example 22]"
result = "1/6"

[[record]]
compound = "CC1(C)OC2C[NH2+][Pt-2]3([NH2+]CC2O1)[O]C(=O)C1(CCC1)C(=O)[O]3 (centres unmarked) [Example 26]"
result = "0/6"

[[record]]
compound = "O=C1[O][Pt-2]2([NH2+]CC3OCOC3C[NH2+]2)[O]C(=O)C12CCC2 (centres unmarked) [Example 20]"
result = "0/6"

[[record]]
compound = "O=C1[O][Pt-2]2([NH2+]CC3OC4(CCCC4)OC3C[NH2+]2)[O]C(=O)C12CCC2 (centres unmarked) [Example 30]"
result = "0/6"


q: Fill in: Number of dead mice, 1st day of CCC1OC2C[NH2+][Pt-2]3([NH2+]CC2O1)[O]C(=O)C1(CCC1)C(=O)[O]3 (centres unmarked) [Example 24] is ___
a: 0/6

----------
tested on: ICR mice; experiment: Acute toxicity test; assay type: in vivo; details: female, 91.8 mg/kg i.p.
Each entry below carries its recorded Number of dead mice, 1st day.

Please review the entries below; each comes with its answer.
[[record]]
molecule = "CC1[O][Pt][O]C1=O.NCC1OC2(CCCC2)OC1CN (centres unmarked) [Example 15]"
target_entity = "ICR mice"
property = "Number of dead mice, 1st day"
result = "0/6"

[[record]]
molecule = "CCC1(C)OC2C[NH2+][Pt-2]3([NH2+]CC2O1)[O]CC(=O)[O]3 (centres unmarked) [Example 9]"
target_entity = "ICR mice"
property = "Number of dead mice, 1st day"
result = "0/6"

[[record]]
molecule = "CCC1(CC)OC2C[NH2+][Pt-2]3([NH2+]CC2O1)[O]CC(=O)[O]3 (centres unmarked) [Example 8]"
target_entity = "ICR mice"
property = "Number of dead mice, 1st day"
result = "0/6"

[[record]]
molecule = "CC(C)C1OC(CN)C(CN)O1.CC1[O][Pt][O]C1=O (centres unmarked) [Example 19]"
target_entity = "ICR mice"
property = "Number of dead mice, 1st day"
result = "0/6"


q: GET /values?readout=Number of dead mice, 1st day&system=ICR mice&item= CC1[O][Pt][O]C1=O.CCC1OC(CN)C(CN)O1 (centres unmarked) [Example 18]
a: 1/6

----------
Each entry below carries its recorded Number of dead mice, 1st day.
tested on: ICR mice; assay: Acute toxicity test; type: in vivo; conditions: male, 25.0 mg/kg i.p.

[[record]]
compound = "NC[C@H]1OC2(CCCCC2)O[C@@H]1CN.O=C1C[O][Pt][O]1 [Example 4]"
result = "0/6"

[[record]]
compound = "NC[C@H]1OC2(CCCC2)O[C@@H]1CN.O=C1C[O][Pt][O]1 [Example 3]"
result = "0/6"

[[record]]
compound = "CC1(C)O[C@H](CN)[C@@H](CN)O1.O=C1C[O][Pt][O]1 [Example 2]"
result = "0/6"


q: Fill in: Number of dead mice, 1st day of CC(C)C1O[C@H](CN)[C@@H](CN)O1.O=C1C[O][Pt][O]1 [Example 7] is ___
a: 0/6

q: Fill in: Number of dead mice, 1st day of CCC1O[C@H](CN)[C@@H](CN)O1.O=C1C[O][Pt][O]1 [Example 6] is ___
a: 0/6
